Tested on: SAUR 9218
experiment-notes: MIC Test Method, standard agar dilution
Type: cell-based
condition-parameters: agar dilution, Mueller Hinton agar, incubated overnight at 35° C.; lowest concentration that inhibits visible growth; read-out: SAUR 9218 MIC
Parameter MIC: see the listing below.

See these solved cases before continuing.
molecular-string: N#Cc1ccc(NC(=O)c2nsc3ccccc23)c(C(=O)O)c1
test-target: SAUR 9218
MIC: 1 µg/mL
//
molecular-string: CCOC(=O)CC(=O)Nc1cccc2cc(C(=O)Nc3ccc(C#N)cc3C(=O)O)[nH]c12
test-target: SAUR 9218
MIC: 0.5 µg/mL
//
molecular-string: COCCOCCCSc1cnc(C(=O)Nc2ccc(Br)cc2C(=O)O)cn1
test-target: SAUR 9218
MIC: 2 µg/mL
//
molecular-string: O=C(Nc1ccc(Br)cc1C(=O)O)c1coc(CC[C@H](O)CO)n1
test-target: SAUR 9218
MIC: > 128 µg/mL

Please find the next molecule below.
I would be grateful if you could share the reported MIC for "CC(C)c1ccc(CC(=O)Nc2cccc3cc(C(=O)Nc4ccc(C#N)cc4C(=O)O)[nH]c23)cc1" . 0.5 µg/mL
